Biological target: IAPP fibrils (Homo sapiens, UniProt P10997)
Construct: purchased Bachem Inc
Sequence (P10997 34-70 limits assumed): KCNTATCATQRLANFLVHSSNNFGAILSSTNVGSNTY
Experiment: Thioflavin T fluorometry - disruption of type 2 diabetes IAPP fibrils
Type: biochemical
Conditions: IAPP:test compound wt/wt ratio 1:0.1; 25 μM pre-fibrillized IAPP, 37° C., 3 days; read-out: % Inhibition IAPP (result ± S.D.)
Text: In this assay Thioflavin T binds specifically to fibrillar amyloid, and this binding produces a fluorescence enhancement at 485 nm that is directly proportional to the amount of IAPP fibrils present. The higher the fluorescence, the greater the amount of IAPP fibrils present (Naki et al, Lab. Invest. 65:104-110, 1991; Levine III, Protein Sci. 2:404-410, 1993; Amyloid: Int. J. Exp. Clin. Invest. 2:1-6, 1995). […]
Each record's inhibition is compared with lower band (below 70%), central band (70% to below 90%), upper band (90% or more) to give its class.

{"Compound": "O=C(N[C@@H]1CCCC[C@H]1NC(=O)c1ccc(O)c(O)c1)c1ccc(O)c(O)c1 (relative stereo) [Compound 26]", "Label class": "lower band"}
{"Compound": "O=C(Nc1ccc(O)c(O)c1)c1ccc(O)c(O)c1 [Compound 51]", "Label class": "upper band"}
{"Compound": "O=C(NCc1ccc(O)c(O)c1)c1ccc(O)c(O)c1 [Compound 52]", "Label class": "central band"}
{"Compound": "O=C(c1ccc(O)c(O)c1)N1CCN(C(=O)c2ccc(O)c(O)c2)CC1 [Compound 23, 1,4-bis(3,4-dihydroxybenzoyl)piperazine]", "Label class": "lower band"}
{"Compound": "O=C(Nc1ccc(O)c(O)c1)C(=O)Nc1ccc(O)c(O)c1 [Compound 63, oxalic acid bis(3,4-dihydroxyanilide)]", "Label class": "central band"}
{"Compound": "Cc1nc(-c2ccc(O)c(O)c2)cc(-c2ccc(O)c(O)c2)c1C#N [Compound 8]", "Label class": "lower band"}
{"Compound": "O=C(NCc1ccc(O)c(O)c1)C(=Cc1ccc(O)c(O)c1)NC(=O)c1ccc(O)c(O)c1 [Compound 21]", "Label class": "central band"}
{"Compound": "O=C(CCC(=O)Nc1ccc(O)c(O)c1)Nc1ccc(O)c(O)c1 [Compound 66, succinic acid bis(3,4-dihydroxyanilide)]", "Label class": "upper band"}

---

target: IAPP fibrils (Homo sapiens); construct: purchased Bachem Inc; assay: Thioflavin T fluorometry - disruption of type 2 diabetes IAPP fibrils; assay type: biochemical; settings: IAPP:test compound wt/wt ratio 1:0.01; 25 μM pre-fibrillized IAPP, 37° C., 3 days; read-out: % Inhibition IAPP (result ± S.D.)

{"Compound": "O=C(c1ccc(O)c(O)c1)C(O)c1ccc(O)c(O)c1 (stereo not shown) [Compound 1, 3,4,3′,4′-tetrahydroxybenzoin]", "Readout unit": "%", "inhibition": 57.3}
{"Compound": "O=C(N[C@@H]1CCCC[C@H]1NC(=O)c1ccc(O)c(O)c1)c1ccc(O)c(O)c1 (relative stereo)", "Readout unit": "%", "inhibition": 24.6}
{"Compound": "O=C(Nc1ccc(O)c(O)c1)c1ccc(O)c(O)c1", "Readout unit": "%", "inhibition": 56.6}
{"Compound": "O=C(NCc1ccc(O)c(O)c1)C(=Cc1ccc(O)c(O)c1)NC(=O)c1ccc(O)c(O)c1", "Readout unit": "%", "inhibition": 25.8}

---

molecular target: NAC fibrils (Homo sapiens, UniProt P37840); construct: NAC is a 35-amino acid fragment of α-synuclein; purchased Bachem Inc; test: Congo red binding assay with NAC fibrils; type: biochemical; conditions: NAC:test compound wt/wt ratio 1:0.1; 3-day incubation
Measurement type: % Inhibition NAC (result ± S.D.), Congo red binding (%)

{"Compound": "O=C(O)CN(CCN(CC(=O)O)CC(=O)O)CC(=O)O [EDTA, reference compound]", "Recorded result": 0.0}
{"Compound": "O=C(N[C@@H]1CCCC[C@H]1NC(=O)c1ccc(O)c(O)c1)c1ccc(O)c(O)c1 (relative stereo) [Compound 26]", "Recorded result": 36.7}
{"Compound": "Oc1ccc(Cc2ccc(O)c(O)c2)cc1O [Compound 3, 3,4,3′,4′-tetrahydroxydiphenylmethane]", "Recorded result": 83.2}
{"Compound": "O=C(c1ccc(O)c(O)c1)C(O)c1ccc(O)c(O)c1 (stereo not shown) [Compound 1, 3,4,3′,4′-tetrahydroxybenzoin]", "Recorded result": 75.9}
